Readings of thermal stability score for the listed sequences
- Tested on: HeLa Kyoto
- PROTOCOL DETAILS: thermal stability score vs G1/S (z-score of summed log2 fold changes over temperatures); higher = more thermally stable than in G1/S
- REPORTED CONDITIONS: cell cycle stage: mitosis
MEASUREMENT LABEL: thermal stability score

- MDWVMKHNGPNDASDGTVRLRGLPFGCSKEEIVQFFQGLEIVPNGITLTMDYQGRSTGEAFVQFASKEIAENALGKHKERIGHRYIEIFRSSRSEIKGFYDPPRRLLGQRPGPYDRPIGGRGGYYGAGRGSMYDRMRRGGDGYDGGYGGFDDYGGYNNYGYGNDGFDDRMRDGRGMGGHGYGGAGDASSGFHGGHFVHMRGLPFRATENDIANFFSPLNPIRVHIDIGADGRATGEADVEFVTHEDAVAAMSKDKNNMQHRYIELFLNSTPGGGSGMGGSGMGGYGRDGMDNQGGYGSVGRMGMGNNYSGGYGTPDGLGGYGRGGGGSGGYYGQGGMSGGGWRGMY [HNRNPH3]: 9.58
- MSSTLAKIAEIEAEMARTQKNKATAHHLGLLKARLAKLRRELITPKGGGGGGPGEGFDVAKTGDARIGFVGFPSVGKSTLLSNLAGVYSEVAAYEFTTLTTVPGVIRYKGAKIQLLDLPGIIEGAKDGKGRGRQVIAVARTCNLILIVLDVLKPLGHKKIIENELEGFGIRLNSKPPNIGFKKKDKGGINLTATCPQSELDAETVKSILAEYKIHNADVTLRSDATADDLIDVVEGNRVYIPCIYVLNKIDQISIEELDIIYKVPHCVPISAHHRWNFDDLLEKIWDYLKLVRIYTKPKGQLPDYTSPVVLPYSRTTVEDFCMKIHKNLIKEFKYALVWGLSVKHNPQKVGKDHTLEDEDVIQIVKK [DRG1]: -2.04
- MDLLFGRRKTPEELLRQNQRALNRAMRELDRERQKLETQEKKIIADIKKMAKQGQMDAVRIMAKDLVRTRRYVRKFVLMRANIQAVSLKIQTLKSNNSMAQAMKGVTKAMGTMNRQLKLPQIQKIMMEFERQAEIMDMKEEMMNDAIDDAMGDEEDEEESDAVVSQVLDELGLSLTDELSNLPSTGGSLSVAAGGKKAEAAASALADADADLEERLKNLRRD [CHMP2A]: 0.533

* * *

- Tested on: HeLa Kyoto
- PROTOCOL DETAILS: solubility change mitosis vs G1/S (difference of NP-40 vs SDS log2 ratios) (log2 ratio difference); higher = more soluble in mitosis
MEASUREMENT LABEL: solubility change mitosis (log2)

• MAAPALGLVCGRCPELGLVLLLLLLSLLCGAAGSQEAGTGAGAGSLAGSCGCGTPQRPGAHGSSAAAHRYSREANAPGPVPGERQLAHSKMVPIPAGVFTMGTDDPQIKQDGEAPARRVTIDAFYMDAYEVSNTEFEKFVNSTGYLTEAEKFGDSFVFEGMLSEQVKTNIQQAVAAAPWWLPVKGANWRHPEGPDSTILHRPDHPVLHVSWNDAVAYCTWAGKRLPTEAEWEYSCRGGLHNRLFPWGNKLQPKGQHYANIWQGEFPVTNTGEDGFQGTAPVDAFPPNGYGLYNIVGNAWEWTSDWWTVHHSVEETLNPKGPPSGKDRVKKGGSYMCHRSYCYRYRCAARSQNTPDSSASNLGFRCAADRLPTMD [SUMF1] = 0.0674

Data provenance: the supplement of paper PMC5998384
